Target: Cathepsin D (Cat D) (Homo sapiens (Human), UniProt P07339)
Sequence (P07339 65-412, species assumed): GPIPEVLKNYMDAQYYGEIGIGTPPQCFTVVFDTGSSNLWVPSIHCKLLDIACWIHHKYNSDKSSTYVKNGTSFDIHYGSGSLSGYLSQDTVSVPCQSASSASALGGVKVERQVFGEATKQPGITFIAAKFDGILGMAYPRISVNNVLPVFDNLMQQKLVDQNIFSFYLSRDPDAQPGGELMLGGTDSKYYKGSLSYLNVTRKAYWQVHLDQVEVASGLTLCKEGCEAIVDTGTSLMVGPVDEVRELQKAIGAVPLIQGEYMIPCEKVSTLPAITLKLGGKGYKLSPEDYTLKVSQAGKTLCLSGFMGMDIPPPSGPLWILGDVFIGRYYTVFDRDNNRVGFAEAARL
Assay: In vitro enzymatic Cathepsin D (Cat D) FRET assay
Format: biochemical
Settings: read-out: CatD IC50
Consider the following compounds; for each one, report its pIC50.
// field semantics: pIC50 = negative decimal log of concentration (mol/L)

Give recorded pIC50. `Cc1cccnc1C(=O)Nc1ccc(F)c([C@@]2(C(F)F)N=C(N)O[C@@H]3C[C@@H]32)c1`
2.78

Give recorded pIC50. `COc1ccc(C(=O)Nc2ccc(Cl)c([C@@]3(C(F)F)N=C(N)O[C@@H]4C[C@@H]43)c2)nc1`
3.72

Give recorded pIC50. COc1cnc(C(=O)Nc2ccc(F)c([C@]3(C(F)F)N=C(N)O[C@H]4C[C@H]43)c2)c(C)n1 (racemic) [Example 58]
3.09

Give recorded pIC50. `COc1ccc(C(=O)Nc2ccc(F)c([C@@]3(CF)N=C(N)O[C@@H]4C[C@@H]43)c2F)nc1`
3.03

The values you see were collected from patent US9085576B2.
